organism: Homo sapiens; experiment: Selectivity ratio of Ki for human cloned CB1 receptor to Ki for human cloned CB2 receptor
Assignment: determine reported Ratio Ki for the given compounds.
One number for each entry.

Worked cases, Ratio Ki given:
Compound	Observed Measurement
Cc1ccc(C(=O)NC(C)C23CC4CC(CC(C4)C2)C3)cc1S(=O)(=O)N1CCOCC1 (centres undefined)	5
Cc1ccc(C(=O)N[C@H]2CC3CC[C@@]2(C)C3(C)C)cc1S(=O)(=O)N1CCOCC1	7
O=C(NCc1cccnc1)c1ccc(Br)c(S(=O)(=O)N2CCCCC2)c1	5
CC1(C)[C@H]2CC[C@](C)(C2)[C@@H]1NC(=O)c1ccc(Br)c(S(=O)(=O)N2CCCCC2)c1	7
CC1(C)[C@H]2CC[C@](C)(C2)[C@@H]1NC(=O)c1ccc(Br)c(S(=O)(=O)N2CCOCC2)c1	25

Now examine the next entry.
Q) Quick check: Ratio Ki of "O=C(NCc1ccccc1)c1ccc(Br)c(S(=O)(=O)N2CCCCC2)c1" ?
A) 3
